Test system: SW-620 colon
assay: NCI tumour cell line growth inhibition, 48 h
The entries below are paired with their reported TGI.

q: # get_value(readout='TGI', item= C=C1C(=O)C[C@@]23CCC[C@@]12CC(OCOC)C3 (some centres undefined) )
a: 3.97 µM

q: Recorded TGI for `CCCCCCCCCc1cc[n+](CC(=O)c2ccc([N+](=O)[O-])cc2)cc1` , please?
a: 1.63 µM

q: Report TGI for `CCN(CC)CCNC(=O)c1ccc(I)cc1` please.
a: > 100 µM

q: May I ask what TGI has been recorded for `O=C1CC(=O)NC(=NN2C(=O)/C(=C/c3ccccc3)N=C2c2ccccc2)N1` ?
a: > 100 µM

q: Could you share which TGI value was measured for `COc1ccc(NC(=O)CC/C(CC(=O)C(C)(C)C)=N\NC(=O)C(N)=O)cc1` ?
a: > 100 µM

q: Consider the molecule `Cc1ccc2c(n1)C(=O)C=CC2=O` and give its measured TGI.
a: 8.76 µM

New cases:
q: What value of TGI has been recorded for this entry: COc1ccc(/C=C2\CCC(C)/C(=C\c3ccc(OC)c(OC)c3)C2=O)cc1OC (centres undefined)
a: > 100 µM

q: May I ask what TGI has been recorded for COc1cc(C2SC(N)=Nc3c2c(C)nn3C(=O)c2ccccc2O)ccc1O (centres undefined) ?
a: > 10 µM

q: Please give the measured TGI for this molecule: CCCCCCCCCCCCCCCC[N+](C)(CCO)Cc1cnc[nH]1 (centres undefined)
a: 13.7 µM

q: // TGI lookup, key: `CCCCOC(=O)NC(Nc1cccc(C(F)(F)F)c1)(C(F)(F)F)C(F)(F)F`
a: > 100 µM

q: Report TGI for NC(=O)c1coc(C2OC(CO)C(O)C2O)n1 (centres undefined) please.
a: > 100 µM

###

Tested on: M14 melanoma
assay: NCI tumour cell line growth inhibition, 48 h
measurement-type: TGI (µM)
// note: answer is a bare numeric in µM

q: Field request: TGI | item: `O=[N+]([O-])/C=C/c1cc2ccccc2[nH]1`
a: 28.5

q: Would you mind telling me what TGI value was observed for COc1cc(C=C2C(C)=NN(c3cccc(Cl)c3)C23C(Cl)C(=O)N3c2nc3ccccc3s2)ccc1O (stereo not given) ?
a: 41.9

q: Requested read-out: TGI. Entry: `O=C(Nc1ccccc1O)c1ccc(CNc2ccnc(C(F)(F)F)c2)cc1`
a: 38

q: Consider the compound CC(=O)N1c2ccccc2NC2=C(C(=O)N(Cc3ccccc3)C2(C)C)C1c1ccco1 (stereo not given) and give its measured TGI.
a: 5.31

q: # query: TGI of entry C/C1=C/C(C)CC(C)OC(=O)C(C)NC(=O)C(Cc2ccc(O)c(I)c2)N(C)C(=O)C(C)NC(=O)C(C)C1 (stereo not given)
a: 48.8

Further cases:
q: # input compound: `CCN(CC)CCCn1c(=O)c2ccccc2n2c3c(=O)n(C)c(=O)n(C)c3nc12` ; wanted: its TGI
a: 25.1

###

System: NCI-H23 lung
assay: NCI tumour cell line growth inhibition, 48 h
measurement-type: TGI

q: Kindly state the measured TGI obtained for C/C=C1/CN2CCC3(O)c4ccccc4N4C=C(C(=O)OC)C1CC2C43O (centres undefined) with NCI-H23 lung.
a: > 100 µM

q: Find TGI (NCI-H23 lung) for the entry `COC(=O)Nc1nc2ccc(C(=O)c3ccc(N(C)C4COC4)cc3)cc2[nH]1`
a: > 100 µM

q: Hi! What's the reported TGI for COC(C(=O)C(O)C(C)O)C1CC2C=C3C=C(OC4CC(OC5CC(O)C(OC)C(C)O5)C(OC(C)=O)C(C)O4)C(C)C(=O)C3=C(O)C2=C(O)C1OC1CC(OC2CC(OC3CC(C)(O)C(OC(=O)C(C)C)C(C)O3)C(O)C(C)O2)C(O)C(C)O1 (centres undefined) on NCI-H23 lung?
a: < 0.01 µM

Further cases:
q: Return TGI measured with NCI-H23 lung given this compound: `CCN(CC)CCNC(=O)c1ccc(I)cc1`
a: > 100 µM
